target: CDK2 (Homo sapiens, UniProt P24941); construct: endogenous in cells; host or cells: MDA-MB-231; assay: CDK protein degradation activity (Western blotting), CDK2; format: cell-based; conditions: MDA-MB-231 cells, 0.1 μM, 16 hours, Western blot
experimentalEndpoint: Enzyme degradation CDK2 (% remaining) @ 0.1 μM

compound	tgt	testResult
O=C1CC[C@H](N2C(=O)c3cccc(OCC(=O)N4CCC(CN5CCC(c6ccc(Nc7ncnc8c7ncn8[C@H]7C[C@@H](NC(=O)Cc8ccccc8)C7)cc6)CC5)CC4)c3C2=O)C(=O)N1 [Compound 287]	CDK2 (Homo sapiens, UniProt P24941)	0/0/0%
O=C1CC[C@H](N2C(=O)c3ccc(N4CC(C(=O)N5CCC6(CC5)CC(N5CCN(c7ccc(Nc8ncnc9c8ncn9C8CC(NC(=O)c9c(Cl)cccc9Cl)C8)cc7)CC5)C6)C4)cc3C2=O)C(=O)N1 (some centres unmarked) [Compound 383]	CDK2 (Homo sapiens, UniProt P24941)	40/40/40%
O=C1CC[C@H](N2C(=O)c3ccc(OCC(=O)N4CCN(CC5CCN(c6ccc(Nc7ncnc8c7ncn8C7CC(NC(=O)c8c(Cl)cccc8Cl)C7)cc6)CC5)CC4)cc3C2=O)C(=O)N1 (some centres unmarked) [Compound 325]	CDK2 (Homo sapiens, UniProt P24941)	40%
O=C1CC[C@H](N2C(=O)c3cccc(NCC(=O)N4CCC(CN5CCN(c6ccc(Nc7ncnc8c7ncn8[C@H]7C[C@@H](NC(=O)c8cccc(C(F)(F)F)n8)C7)cc6)CC5)CC4)c3C2=O)C(=O)N1 [Compound 425]	CDK2 (Homo sapiens, UniProt P24941)	0/0/0%
Cc1cccc(C(=O)NC2CC(n3cnc4c(NCc5ccc(N6CCN(CC7CCN(C(=O)CNc8ccc9c(c8)C(=O)N([C@H]8CCC(=O)NC8=O)C9=O)CC7)CC6)cc5)ncnc43)C2)n1 (some centres unmarked) [Compound 153]	CDK2 (Homo sapiens, UniProt P24941)	10/10/10%

---

Molecular target: CDK2 (Homo sapiens, UniProt P24941)
Construct: endogenous in cells; host or cells: MDA-MB-231
Assay: CDK protein degradation activity (Western blotting), CDK2
Type: cell-based
Conditions: MDA-MB-231 cells, 0.1 μM, 16 hours, Western blot
Protocol: In order to evaluate the CDK protein degradation activity of the compounds according to the present invention, the following experiment was conducted. MDA-MB-231 cells were seeded at 5×10^5 cells per well in a 6-well plate. The next day, the compounds were treated in each well to achieve final concentrations of 100 nM, 1 μM, and 10 μM. […] Cell lysates were quantified and separated by size using sodium dodecyl sulfate-polyacrylamide gel electrophoresis (SDS-PAGE). […]
Quick reference for Enzyme degradation CDK2 (% remaining) @ 0.1 μM among some compounds
experimentalEndpoint: Enzyme degradation CDK2 (% remaining) @ 0.1 μM

compound	testResult
O=C1CC[C@H](N2C(=O)c3cc(F)c(N4CCC(CCN5CCN(c6ccc(Nc7ncnc8c7ncn8C7CC(NC(=O)c8c(Cl)cccc8Cl)C7)cc6)CC5)CC4)cc3C2=O)C(=O)N1 (stereo partly shown)	30/30/30%
O=C1CC[C@@H](c2ccc(OCC(=O)N3CCC(CCCN4CCN(c5ccc(Nc6ncnc7c6ncn7[C@H]6C[C@@H](NC(=O)Cc7ccccc7)C6)cc5)CC4)CC3)cc2)C(=O)N1	20/20/20%
O=C1CC[C@H](N2C(=O)c3cc(F)c(N4CCC(C(=O)N5CCN(CC6CCN(c7ccc(Nc8ncnc9c8ncn9[C@H]8C[C@@H](NC(=O)c9c(Cl)cccc9Cl)C8)cc7)CC6)CC5)CC4)cc3C2=O)C(=O)N1	20/20/20%
O=C1CC[C@H](n2nnc3ccc(N4CCN(CCCC5CCN(c6ccc(Nc7ncnc8c7ncn8C7CC(NC(=O)Cc8ccccc8)C7)cc6)CC5)CC4)cc3c2=O)C(=O)N1 (stereo partly shown)	0/0/0%
Cc1cccc(C(=O)N[C@H]2C[C@@H](n3cnc4c(Nc5ccc(N6CCN(CC7CCN(C(=O)C8CN(c9ccc%10c(c9)C(=O)N([C@H]9CCC(=O)NC9=O)C%10=O)C8)CC7)CC6)cc5C)ncnc43)C2)n1	70/70/70%
N#Cc1cccc(C(=O)N[C@H]2C[C@@H](n3cnc4c(Nc5ccc(N6CCN(CC7CCN(c8ccc9c(c8)CN(C8CCC(=O)NC8=O)C9=O)CC7)CC6)cc5)ncnc43)C2)n1 (stereo partly shown)	30%
O=C1CC[C@H](n2nnc3ccc(N4CCN(CC5CCN(c6ccc(Nc7ncnc8c7ncn8C7CC(NC(=O)Cc8ccccc8)C7)cc6)CC5)CC4)cc3c2=O)C(=O)N1 (stereo partly shown)	20%
O=C1CC[C@H](N2C(=O)c3cc(F)c(N4CCC(C(=O)N5CCC6(CC5)CC(N5CCN(c7ccc(Nc8ncnc9c8ncn9C8CC(NC(=O)Cc9ccccc9)C8)cc7)CC5)C6)CC4)cc3C2=O)C(=O)N1 (stereo partly shown)	40/40/40%
O=C1CC[C@H](N2C(=O)c3cccc(NCC(=O)N4CCN(CCCN5CCN(c6ccc(Nc7ncnc8c7ncn8[C@H]7C[C@@H](NC(=O)Cc8ccccc8)C7)cc6)CC5)CC4)c3C2=O)C(=O)N1	50%
O=C1CCC(N2C(=O)c3ccc(N4CCC(CN5CCC(CCNc6ncnc7c6ncn7[C@H]6C[C@@H](NC(=O)c7c(Cl)cccc7Cl)C6)CC5)CC4)cc3C2=O)C(=O)N1 (stereo partly shown)	20%
